Overview of reported switch fluorescence ratio across a group of sequences:
- Tested on: ATP;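 also: ATP exposure 15 min at 22 °C before imaging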
- assay_protocol: switch fluorescence ratio, 500 uM ATP over buffer (Cy3 cluster intensity, sum of 5 cycles each) (fold (ratio)); higher = stronger signal-on switching upon ATP binding; sequences stand for … in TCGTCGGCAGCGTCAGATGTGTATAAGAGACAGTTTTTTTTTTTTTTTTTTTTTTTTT…TC
- test_conditions: aptamer strand: ATP DNA aptamer (quencher-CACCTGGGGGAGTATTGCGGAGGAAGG + anchor), 100 nM annealed; ATP concentration: 500 uM
readout_name: switch fluorescence ratio

> print(dat)
    residue.codes  system.under.test  recorded.number
 1     AAGGGCGTGG                ATP            0.982
 2     TTTTGTTAGT                ATP            0.997
 3     ATTGCGTTGG                ATP            0.996
 4     ATGGGATTTA                ATP             1.04
 5     CTATTGGGAT                ATP            0.981
 6     GGCAAATTTT                ATP             1.02
 7     TCTGGGAATA                ATP             1.04
 8     GGGCTGGACG                ATP                1
 9     ACCAGCGAAT                ATP             1.06
10     TGGGTGCATT                ATP             1.01
11     AGTACGAGGA                ATP             1.04
12     AGCCAGGATG                ATP              1.1
13     TTGAAGTAAG                ATP            0.994
14     TAGGAGCGAT                ATP             1.15
15     TTCGCTGGTA                ATP             1.15
16     GCTTGGAGAG                ATP             0.99
17     TATACTATGT                ATP             1.05
18     GAGTGCAGGT                ATP             1.01
19      AGGGTGGGG                ATP            0.928
20     ACTGTAATCC                ATP             1.16
21     TTTGTTAGTG                ATP            0.972
22     GGTCTTTTTT                ATP             1.02
23     CGTCCGGATG                ATP             1.19
24     AGGAGCAGGG                ATP                1
25     TTATATCTAC                ATP                1
26     TTCAATGGCT                ATP            0.983
27     GTGACCTGGG                ATP             1.03
28     AATAGAGTTA                ATP             1.02
29     TGGTTTTGGT                ATP            0.987
30     AAAATGCCAC                ATP             1.04
31     TTTGGGGAAC                ATP             1.02
32     CCAAGTTGTG                ATP             1.03
33      TGTTTTTAA                ATP                1
34     AGTAGAATCA                ATP             1.01
35     CGCATTCTAA                ATP             1.31
36     TTTTTGGATG                ATP             1.02
37     TATGTGATGG                ATP            0.987
38     AGGGTTATGA                ATP            0.995
39     TTCAGGATTA                ATP            0.994
40     GATGGTTGTC                ATP                1
41     GGAGATGGGG                ATP             1.02
42     GTAGAGAGTG                ATP                1
43     CGTGGGTGTT                ATP            0.946

###

Overview of reported switch fluorescence ratio across a group of sequences:
- Tested on: ATP;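 also: ATP exposure 15 min at 22 °C before imaging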
- assay_protocol: switch fluorescence ratio, 500 uM ATP over buffer (Cy3 cluster intensity, sum of 5 cycles each) (fold (ratio)); higher = stronger signal-on switching upon ATP binding; sequences stand for … in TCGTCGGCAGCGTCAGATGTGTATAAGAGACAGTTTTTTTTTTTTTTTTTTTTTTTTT…TC
- test_conditions: aptamer strand: ATP DNA aptamer (quencher-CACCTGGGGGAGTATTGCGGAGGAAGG + anchor), 100 nM annealed; ATP concentration: 500 uM
readout_name: switch fluorescence ratio

> print(dat)
    residue.codes  system.under.test  recorded.number
 1     GTGGATTATT                ATP            0.993
 2     GAAATAGGTT                ATP            0.989
 3     TGGGTGTTTT                ATP             1.05
 4     AATGTAAGGA                ATP             1.03
 5     GGTATCGAGG                ATP             1.01
 6     CTAATCCACT                ATP             1.03
 7     TAAGGTAGGG                ATP             1.01
 8     GGGTTAATTC                ATP             1.03
 9     TCCGGGGAGC                ATP             1.06
10     TGGAAGGTAT                ATP            0.979
11      TATATCGTC                ATP             1.19
12     AAAACAGTAA                ATP             1.02
13     ACTTTAGTTA                ATP            0.976
14     TTCCTGAGTT                ATP             1.16
15     CGGTAGGATC                ATP            0.995
16     ATTTTTGTGG                ATP            0.974
17     GCATGGGTGG                ATP                1
18     AAGGGCTATT                ATP                1
19     CAAGCGTTGT                ATP             1.03
20     GTCATCGAGT                ATP             1.01
21     AAACTACTCT                ATP             1.03

###

Overview of reported switch fluorescence ratio across a group of sequences:
- Tested on: ATP;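 also: ATP exposure 15 min at 22 °C before imaging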
- assay_protocol: switch fluorescence ratio, 500 uM ATP over buffer (Cy3 cluster intensity, sum of 5 cycles each) (fold (ratio)); higher = stronger signal-on switching upon ATP binding; sequences stand for … in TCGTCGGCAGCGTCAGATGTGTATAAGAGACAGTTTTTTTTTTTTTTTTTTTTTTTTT…TC
- test_conditions: aptamer strand: ATP DNA aptamer (quencher-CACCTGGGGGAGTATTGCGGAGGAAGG + anchor), 100 nM annealed; ATP concentration: 500 uM
readout_name: switch fluorescence ratio

> print(dat)
    residue.codes               readout.name  recorded.number
 1      GATAATTGG  switch fluorescence ratio            0.988
 2     ATCCCCGACC  switch fluorescence ratio             1.25
 3     ACATTTTTTT  switch fluorescence ratio             1.01
 4     TTTATTGAGT  switch fluorescence ratio            0.978
 5     CGGCGTCCGT  switch fluorescence ratio             1.01
 6     TACAGGGGCC  switch fluorescence ratio                1
 7     CTGGGAAGTG  switch fluorescence ratio            0.978
 8     TATGGGTCGG  switch fluorescence ratio                1
 9       CCTAGCTG  switch fluorescence ratio             1.02
10     AGATTCATCA  switch fluorescence ratio            0.993
11     ATGAAGCGGT  switch fluorescence ratio             1.04
12     TTCGGTTTTC  switch fluorescence ratio            0.984
13     GACCAAGGGT  switch fluorescence ratio            0.978
14     ATGCGATGTA  switch fluorescence ratio             1.04
15     CAGAGGCGTG  switch fluorescence ratio            0.983
16     ATATGTTAGT  switch fluorescence ratio            0.988
17     AAGATGGTAG  switch fluorescence ratio            0.971
18     TAATGATTGT  switch fluorescence ratio            0.982
19     TCAGGGGCGC  switch fluorescence ratio            0.971
20     TTTGGGGTTA  switch fluorescence ratio            0.996
21     AGATTATGCA  switch fluorescence ratio             1.01
